Tested on: human uterine cancer cells
Assay: ADC assay on human uterine cancer cells using Fab-anti-mouse IgG Fc (Duocarmycin DM conjugated or unconjugated)
Assay type: cell-based
Settings: isotype-specific unconjugated Fab, 4 days
RESULT TYPE: Cytotoxic effect

SB5: mouse anti-human SAS1B monoclonal antibody, IgG2b; VH SEQ ID NO:16, VL SEQ ID NO:18 (antibody, listed as Mus musculus, V domains shown) VH: EVQLQQSGPELVKPGSSVKISCKPSGYTFTDYNMVWMKQSHGKSLEWIGAINPNNGGTTYNQKFKGKATLTVDKSSSTAYMELRSLTSEDSAVYYCAPNWDWFAYWGQGTLVTVSA VL: DVLMTQIPLSLPVSLGDQASISCRSSQSILHSNGNTYLEWYLQKPGQSPKLLIYKVSNRFSGVPDRFSGSGSGTDFTLKISRVEAEDLGVYYCFQGSHVPFTFGSGTKLEIK | no cytotoxic effect
SB2: mouse anti-human SAS1B monoclonal antibody, IgG2b; VH SEQ ID NO:14, VL SEQ ID NO:15 (antibody, listed as Mus musculus, V domains shown) VH: EVQLQQSGPELVKPGSSVKISCKASGYTFTDYNMVWVKQSHGKSLEWIGAVNPNNGGTSYNQKFKGKATLTVDKSSSTAYMELRSLTSEDSAVYYCVPNWDWFAYWGQGTLVTVSA VL: DVLMTQTPLSLPVSLGDQASISCRSSQSLVHSNGNTYLEWYLQKPGQSPNLLIYKVSNRFSGVPDRFSGSGSGTDFTLKISRVEAEDLGVYYCFQGSHVPFTFGSGTKLEIK | no cytotoxic effect
SB1: mouse anti-SAS1B monoclonal antibody, IgG2a; VH SEQ ID NO:12, VL SEQ ID NO:13 (antibody, listed as Mus musculus, V domains shown) VH: EVQLQQSGPELVKPGSSVKISCKASGYTFTDYNMDWVKQSHGKSLEWIGAINPNNGGTSYNQKFKGKATLTVDKSSSTAYMELRSLTSEDSAVYYCATNEYWGQGTTLTVSS VL: NIVMTQSPKSMSMSVGERVTLSCKASENVGTYVSWYQQKPEQSPKLLIYGASNRYTGVPDRFTGSGSATDFTLTISSVQAEDLADYHCGQSYSYPWTFGGGTKLEIK | no cytotoxic effect
